Overview of reported growth across a group of molecules:
- System: UACC-257 melanoma
- PROTOCOL TEXT: NCI-60 one-dose screen, 48 h (100 = growth as untreated, 0 = no growth, -100 = all killed)
- EXPERIMENTAL CONTEXT: 10 µM unless noted
The panel holds about 83,000 compounds, 20% with a hit somewhere; the sample as a whole holds those more often.

- MOLECULE: "C=C1CCC2C3(C)COC(C)(C)OC3CCC2(C)C1C/C=C1/C(=O)OCC1Oc1ccccc1OC (centres undefined)"
  growth [%]: 85.3
- MOLECULE: "O=c1[nH]c(NCc2ccccc2)nc2nc(Nc3ccc(NC(=S)Nc4ccccc4)cc3)nc(-c3ccc(O)cc3O)c12"
  growth [%]: 39.7
- MOLECULE: "COc1cc(-c2nn(-c3cccc(NC(=O)c4ccc(N5CCOCC5)c(C(F)(F)F)c4)c3)cc2-c2ccncc2)ccc1Cl"
  growth [%]: 24.3
- MOLECULE: "Cc1ccc(-c2nc(C#N)c(S(=O)(=O)n3nc(-c4ccccc4)cc3N)o2)cc1"
  growth [%]: 92.1
- MOLECULE: "COc1cc(C(=O)/C=C/c2ccc3nc(-c4cc(F)cc(F)c4)sc3c2)cc(OC)c1OC"
  growth [%]: 103
- MOLECULE: "CCN(CC)CCC(CNc1ccnc2cc(Cl)ccc12)c1ccccc1 (centres undefined)"
  growth [%]: -78.2
- MOLECULE: "COc1cccc(-c2cc3c(O)cc(C#N)cc3[nH]2)c1"
  growth [%]: 86.9
- MOLECULE: "O=Nc1c(-c2cccc([N+](=O)[O-])c2)nc2ncccn12"
  growth [%]: 79.3
- MOLECULE: "C/C=C(\\C)C(C(=O)NC1CCCCC1)N(C(=O)C1CCc2cc(F)ccc2O1)c1ccc(Cl)cc1 (centres undefined)"
  growth [%]: 98.8
- MOLECULE: "CCN(CC)c1ccc(/C=C2\\Oc3ccc(O)c(I)c3C2=O)cc1"
  growth [%]: 80.6
- MOLECULE: "Cc1ccc(S(=O)(=O)n2cc(C(=O)C(=O)N3CCOCC3)c3ccccc32)cc1"
  growth [%]: 98.4
- MOLECULE: "CCCCNC(=O)Oc1ccc(/C(=C(\\C)c2ccccc2)c2ccc(OCCN(CC)CC)cc2)cc1"
  growth [%]: 19.3
- MOLECULE: "COc1cccc(CC(C)=C(c2ccc(OCCN3CCCCC3)cc2)c2ccc(OCCN3CCCCC3)cc2)c1"
  growth [%]: -69.3
- MOLECULE: "CCCCCCCCCCCCNC(=O)[C@H]1CSC(c2ccsc2)N1 (some centres undefined)"
  growth [%]: -87.2
- MOLECULE: "C/C=C/C1=CN2C(=O)c3cc(OC4OC(C)C(NC)C(C)(O)C4O)c(C)cc3N=C[C@@H]2C1 (some centres undefined)"
  growth [%]: -1.62
- MOLECULE: "C=C1C(=O)O[C@@H]2[C@@H]3O[C@@](C)(CC/C=C(\\C)CCC[C@@H]2C)[C@H](O)C[C@@H]13"
  growth [%]: 67.9
- MOLECULE: "CC(=O)Nc1nc(N)nc(NC(C)=O)c1N=O"
  growth [%]: 113
- MOLECULE: "CCOC(=O)C1C(=O)C=C(c2ccc(OC)cc2)CC1c1sc(N(C)Cc2ccccc2)nc1Cl (centres undefined)"
  growth [%]: 91.2
- MOLECULE: "COc1ccc(C(=O)N2NC(=O)/C(=C/c3ccc(Br)cc3)N=C2c2ccccc2)cc1"
  growth [%]: 95.5

---

- Tested on: MDA-MB-231 breast
- PROTOCOL TEXT: NCI-60 one-dose screen, 48 h (100 = growth as untreated, 0 = no growth, -100 = all killed)
- EXPERIMENTAL CONTEXT: 10 µM unless noted
Compounds without any hit were thinned out: in the full panel of roughly 83,000, 20% have a hit.
Answer not met if growth is under 70%, and met if it is 70% or more.

- COMPOUND: "Fc1ccc(-c2nc(-c3nc4ncccc4[nH]3)cc3c2[nH]c2ccccc23)cc1F"
  TGT: "MDA-MB-231 breast"
  DISCRETE LABEL: "not met"
- COMPOUND: "O=c1c2sc3ncccc3c2nnn1-c1ccccc1"
  TGT: "MDA-MB-231 breast"
  DISCRETE LABEL: "met"
- COMPOUND: "COC(=O)c1cc(=O)nc(N/N=C/c2ccco2)s1"
  TGT: "MDA-MB-231 breast"
  DISCRETE LABEL: "met"
- COMPOUND: "COc1ccccc1CNCCCN1C(=O)c2ccc3c4c(ccc(c24)C1=O)C(=O)N(CCCNCCCCNCCCN)C3=O"
  TGT: "MDA-MB-231 breast"
  DISCRETE LABEL: "not met"
- COMPOUND: "CCN(CC)CCOc1ccc(Cl)c(C)c1"
  TGT: "MDA-MB-231 breast"
  DISCRETE LABEL: "met"
- COMPOUND: "CC(C)(C)OC(=O)NCCc1ccc(N=C=S)cc1"
  TGT: "MDA-MB-231 breast"
  DISCRETE LABEL: "met"
- COMPOUND: "CCC(C)/C(=C\\C#N)NCCCN/C(=C/C#N)C(C)CC (stereo not given)"
  TGT: "MDA-MB-231 breast"
  DISCRETE LABEL: "met"
- COMPOUND: "Fc1ccc(Nc2ncnc3ccc(-c4cnc5[nH]ccc5c4)cc23)cc1Cl"
  TGT: "MDA-MB-231 breast"
  DISCRETE LABEL: "not met"
- COMPOUND: "CC(=O)c1cc2c(N)c(C(=O)Nc3cccc4c3OCCO4)sc2nc1C"
  TGT: "MDA-MB-231 breast"
  DISCRETE LABEL: "met"
- COMPOUND: "CN1C=CN(Cc2ccc(-c3ccccn3)nc2)[CH-]1.CN1C=CN(Cc2ccc(-c3ccccn3)nc2)[CH-]1.[Au+3]"
  TGT: "MDA-MB-231 breast"
  DISCRETE LABEL: "not met"
- COMPOUND: "N/C(=N\\S(=O)(=O)c1ccccc1)Nc1nc2ccccc2s1"
  TGT: "MDA-MB-231 breast"
  DISCRETE LABEL: "met"
- COMPOUND: "COc1ccc(C2C=C(c3ccc(Cl)cc3)N=C3SC=C(C)N32)c(Br)c1 (stereo not given)"
  TGT: "MDA-MB-231 breast"
  DISCRETE LABEL: "not met"
- COMPOUND: "O=c1[nH]c(Nc2ccc(S(=O)(=O)O)cc2)nc2nc(Nc3ccc(NC(=S)Nc4ccccc4)cc3)nc(-c3ccc(O)cc3O)c12"
  TGT: "MDA-MB-231 breast"
  DISCRETE LABEL: "met"
- COMPOUND: "C=C[C@@H]1C[C@H](O)Cc2c(C)cc(C)cc2N1"
  TGT: "MDA-MB-231 breast"
  DISCRETE LABEL: "met"
- COMPOUND: "CC[N+](CC)=c1cc2oc3cc(N(C)C)ccc3nc-2cc1C"
  TGT: "MDA-MB-231 breast"
  DISCRETE LABEL: "not met"
- COMPOUND: "CCOC(=O)CN1/C(=N/c2sc3c(c2C(=O)OCC)CCN(C(=O)OCC)C3)SC(=O)/C1=C\\C(=O)OC"
  TGT: "MDA-MB-231 breast"
  DISCRETE LABEL: "met"
- COMPOUND: "COc1ccc(Nc2ncccc2C(=O)NCc2cn(Cc3cccc(Oc4ccccc4)c3)nn2)cc1"
  TGT: "MDA-MB-231 breast"
  DISCRETE LABEL: "not met"
- COMPOUND: "COc1ccc(C(=O)c2cc(OC)c(OC)c(OC)c2OC)cc1O"
  TGT: "MDA-MB-231 breast"
  DISCRETE LABEL: "not met"
- COMPOUND: "COc1ccc(-c2cc3c(OC)c(OC)c(OC)cc3oc2=O)cc1"
  TGT: "MDA-MB-231 breast"
  DISCRETE LABEL: "not met"

---

- Test system: SNB-19 CNS
- PROTOCOL TEXT: NCI-60 one-dose screen, 48 h
- EXPERIMENTAL CONTEXT: 10 µM unless noted
- Protocol: Growth inhibition of the SNB-19 human tumor cell line is measured as a screen for anti-cancer activity. Cells are grown in 96 well plates and exposed to the test compound for 48 hours. Compounds are tested at a single concentration, which is 10^-5 M for most compounds. The reported endpoint is percent growth (GI% or GIPRCNT), where numbers from 0 - 100% represent growth inhibition, and numbers from -100% - 0 represent cell death. For example, a value of 40 represents 60% growth inhibition. […]
This is part of a sample that, as a whole, favours compounds with a hit. Of some 83,000 tested, about 20% had one in any assay. The source made the active and inactive calls. How the source made its calls: active means growth percent below 10; inactive means the rest.
Outcome codes: active, inactive

- MOLECULE: "Cc1ccc2[nH]c(=O)c3c(c2c1)Oc1ncn2nc(-c4ccco4)nc2c1C3c1ccc(Cl)cc1 (stereo not given)"
  TGT: "SNB-19 CNS"
  DISCRETE LABEL: "inactive"
- MOLECULE: "CN1CCN(Cc2ccc(NC(=O)c3cncc(C#Cc4cnc(N)c5ccncc45)c3)cc2C(F)(F)F)CC1"
  TGT: "SNB-19 CNS"
  DISCRETE LABEL: "inactive"
- MOLECULE: "OC(c1cc2cc(Br)ccc2c2cc(Br)ccc12)C1CCCCN1 (stereo not given)"
  TGT: "SNB-19 CNS"
  DISCRETE LABEL: "active"
- MOLECULE: "COc1cc(-c2nc(N=Nc3c(O)[nH]c4ccc(Br)cc34)[nH]c(=O)c2C#N)cc(OC)c1OC"
  TGT: "SNB-19 CNS"
  DISCRETE LABEL: "inactive"
- MOLECULE: "NNc1cccc(/C=C/c2ccccc2)cc1=O"
  TGT: "SNB-19 CNS"
  DISCRETE LABEL: "inactive"
- MOLECULE: "COc1cc2c(c(OC)c1OC)-c1ccc(N)c(=O)cc1[C@@H](NC(C)=O)CC2"
  TGT: "SNB-19 CNS"
  DISCRETE LABEL: "inactive"
- MOLECULE: "COc1cccc(-c2nc3sccn3c2-c2ccnc(NCCCNS(=O)(=O)c3ccc(F)cc3)c2)c1"
  TGT: "SNB-19 CNS"
  DISCRETE LABEL: "inactive"
- MOLECULE: "CN1C=CN(Cc2ccc(-c3ccccn3)nc2)[CH-]1.CN1C=CN(Cc2ccc(-c3ccccn3)nc2)[CH-]1.[Au+3]"
  TGT: "SNB-19 CNS"
  DISCRETE LABEL: "inactive"
- MOLECULE: "COc1ccc(C(=O)N2NC(=O)/C(=C/c3ccccc3F)N=C2c2ccccc2)cc1"
  TGT: "SNB-19 CNS"
  DISCRETE LABEL: "inactive"
- MOLECULE: "CC(O)CN1CCCCC1 (stereo not given)"
  TGT: "SNB-19 CNS"
  DISCRETE LABEL: "inactive"
